molecular target: 5-HT2A (Homo sapiens); assay: Gq-mediated calcium flux in HEK293 cells, h5-HT2A; conditions: Ca2+ mobilization, HEK293 cells
Sequence (P28223 whole entry): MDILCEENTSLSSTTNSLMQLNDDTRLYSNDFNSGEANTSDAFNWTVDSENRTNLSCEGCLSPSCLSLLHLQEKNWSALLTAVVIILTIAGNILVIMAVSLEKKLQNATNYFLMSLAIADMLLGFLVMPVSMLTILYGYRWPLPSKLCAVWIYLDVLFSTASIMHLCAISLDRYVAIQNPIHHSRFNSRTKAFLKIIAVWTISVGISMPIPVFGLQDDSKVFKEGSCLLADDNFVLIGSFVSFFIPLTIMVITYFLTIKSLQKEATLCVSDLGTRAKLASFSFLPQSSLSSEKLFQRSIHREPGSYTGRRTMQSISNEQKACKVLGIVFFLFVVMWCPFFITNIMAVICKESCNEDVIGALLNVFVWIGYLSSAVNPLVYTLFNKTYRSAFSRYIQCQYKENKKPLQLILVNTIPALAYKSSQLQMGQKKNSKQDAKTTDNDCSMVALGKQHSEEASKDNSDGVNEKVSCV
readout: pEC50
Numbers only, as −log10 of the molar value.

// CCN(C(=O)[C@@H]1C=C2c3cccc4[nH]cc(c34)C[C@H]2N(C)C1)C1CC1 [ECPLA, N-ethyl-N-cyclopropyl lysergamide] : pEC50 value = 7.84

* * *

target: D1 (Homo sapiens, UniProt P21728); experiment: NIMH PDSP competitive binding, D1; details: [3H]SCH23390; cloned receptor; mean ± SEM
Sequence (P21728 whole entry): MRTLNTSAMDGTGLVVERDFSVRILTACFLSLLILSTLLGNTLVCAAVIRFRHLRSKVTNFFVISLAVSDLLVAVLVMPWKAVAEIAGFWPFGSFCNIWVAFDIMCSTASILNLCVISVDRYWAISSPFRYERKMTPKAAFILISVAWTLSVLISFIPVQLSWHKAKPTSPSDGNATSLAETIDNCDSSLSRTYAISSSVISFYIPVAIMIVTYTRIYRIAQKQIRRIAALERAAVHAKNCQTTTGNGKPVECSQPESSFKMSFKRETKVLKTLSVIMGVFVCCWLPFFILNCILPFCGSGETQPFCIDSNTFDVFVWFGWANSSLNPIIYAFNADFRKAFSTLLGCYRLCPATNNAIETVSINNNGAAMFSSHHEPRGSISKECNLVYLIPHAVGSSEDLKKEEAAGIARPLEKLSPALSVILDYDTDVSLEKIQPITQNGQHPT
readout: Ki (µM)
Numbers only, in µM.

Input CCN(C(=O)[C@@H]1C=C2c3cccc4[nH]cc(c34)C[C@H]2N(C)C1)C1CC1 [ECPLA, N-ethyl-N-cyclopropyl lysergamide] . Output Ki: 0.502
